# method_notes: Kinetic parameter KM (nM) for the MAO-B catalyzed oxidation of the compound.
# Type: ADME

{"chemical_string": "C=CC1=CCN(C)CC1", "Km, µM": 80}
{"chemical_string": "CCCN1CC=C(c2ccccc2)CC1", "Km, µM": 2000}
{"chemical_string": "CN1CC=C(c2ccccc2)CC1", "Km, µM": 390}
{"chemical_string": "C#CC1=CCN(C)CC1", "Km, µM": 861}

###

# measurement_target: Amine oxidase [flavin-containing] B (Bos taurus, UniProt P56560)
# Sequence (P56560 whole entry): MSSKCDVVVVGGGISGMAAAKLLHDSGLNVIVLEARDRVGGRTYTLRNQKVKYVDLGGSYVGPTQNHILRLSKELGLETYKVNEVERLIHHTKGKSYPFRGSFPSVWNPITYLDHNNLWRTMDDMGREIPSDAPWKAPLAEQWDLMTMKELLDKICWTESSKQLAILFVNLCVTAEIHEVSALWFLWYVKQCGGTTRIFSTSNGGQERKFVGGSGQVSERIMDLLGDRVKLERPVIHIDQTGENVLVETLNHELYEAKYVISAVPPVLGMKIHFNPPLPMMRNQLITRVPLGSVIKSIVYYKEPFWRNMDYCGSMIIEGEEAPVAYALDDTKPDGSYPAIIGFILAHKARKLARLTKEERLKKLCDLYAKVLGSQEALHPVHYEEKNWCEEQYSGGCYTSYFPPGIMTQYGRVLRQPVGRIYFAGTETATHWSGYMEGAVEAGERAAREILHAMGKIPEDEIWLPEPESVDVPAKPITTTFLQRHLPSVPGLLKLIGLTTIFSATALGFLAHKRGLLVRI
# method_notes: Inhibitory constant against monoamine Oxidase(MAO-B) was determined at a concentration of 300-1500 uM

{"chemical_string": "CCCN1CC=C(c2ccccc2)CC1", "Ki / mM": 5}

###

# measurement_target: Amine oxidase [flavin-containing] B (Bos taurus)
# method_notes: Inhibitory constant against monoamine Oxidase(MAO-B).
Ki strictly under 300 µM means t; at 300 µM or over means f.

{"chemical_string": "CN1CC=C(C#Cc2ccccc2)CC1", "qualitative_label": "f"}
{"chemical_string": "C=CC1=CCN(C)CC1", "qualitative_label": "f"}
{"chemical_string": "C1=C(c2ccccc2)CCN(C2CCCC2)C1", "qualitative_label": "t"}
{"chemical_string": "C=CCN1CC=C(c2ccccc2)CC1", "qualitative_label": "t"}
{"chemical_string": "C#CC1=CCN(C)CC1", "qualitative_label": "t"}

###

# method_notes: Kinetic parameter Vmax (nm/min/unit of MAO-B) for the MAO-B catalyzed oxidation of the compound.
# Format: ADME
readout_name: Vmax

{"chemical_string": "CCCN1CC=C(c2ccccc2)CC1", "readout_name": "Vmax", "val": 7}
{"chemical_string": "C=CC1=CCN(C)CC1", "readout_name": "Vmax", "val": 190}
{"chemical_string": "C#CC1=CCN(C)CC1", "readout_name": "Vmax", "val": 684}
{"chemical_string": "CN1CC=C(c2ccccc2)CC1", "readout_name": "Vmax", "val": 204}
